Target: Eukaryotic translation initiation factor 4E (Homo sapiens) (UniProt P06730)
Sequence (P06730 whole entry): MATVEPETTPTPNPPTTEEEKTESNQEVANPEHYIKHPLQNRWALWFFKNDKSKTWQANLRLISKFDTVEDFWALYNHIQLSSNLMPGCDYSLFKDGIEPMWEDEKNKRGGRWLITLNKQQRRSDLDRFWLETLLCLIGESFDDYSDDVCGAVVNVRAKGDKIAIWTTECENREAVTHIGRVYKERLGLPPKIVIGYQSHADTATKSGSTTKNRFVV
Experiment: Inhibition of eIF-4E expressed in human FaDu cells assessed as inhibition of translational activation at 1 uM by luciferase reporter gene assay relative to control
Type: cell-based
readout-kind: inhibition (%)

> print(dat)
                               smiles.input  readout.kind  unit.annotation  readout.number
1  CNc1nc(-c2ccccc2)c(-c2nc3ccccc3c(=O)n2-c2ccc(Cl)cc2)s1    inhibition                %              40
2  O=C(Nc1nc(-c2ccccc2)c(-c2nc3ccccc3c(=O)n2-c2ccccc2)s1)c1ccccc1    inhibition                %              30
3  O=C(Nc1nc(-c2ccccc2)c(-c2nc3ccccc3c(=O)n2-c2ccc(Cl)cc2)s1)c1ccccc1    inhibition                %              39
